- Test system: Monocotyledonous and dicotyledonous test plants
- PROCEDURE_SUMMARY: Herbicidal action prior to emergence of the plants (pre-emergence action), Example B1
- Assay type: in vivo
- CONDITION_LABEL: preemergence application, 250 g/ha, ECHCG, evaluated after 4 weeks; 100%=total damage, 0%=no damage
Kindly return True if reported herbicidal damage, ECHCG is no lower than 10%; return False if it is lower.

Has `CC(C)c1nnc2c(C(=O)C3=C(O)C(C)(C)C(=O)C(C)(C)C3=O)ccc(C(F)(F)F)n12` a recorded herbicidal damage, ECHCG greater than or equal to 10%?
True

Subsequent entry: O=C(C1=C(O)C2CCC(C2)C1=O)c1ccc(C(F)(F)F)n2cnnc12 (stereo not shown)
False

Subsequent entry: O=C(C1=C(O)C2CCC(C2)C1=O)c1ccc(C(F)(F)F)n2c(C3CC3)nnc12 (stereo not shown)
True

Subsequent entry: `Cc1nnc2c(C(=O)C3=C(O)CCCC3=O)ccc(C(F)(F)F)n12`
True

Subsequent entry: `Cc1nnc2c(C(=O)c3cnn(C)c3O)ccc(C(F)(F)F)n12`
True

Subsequent entry: `O=C1CCCC(O)=C1C(=O)c1ccc(C(F)(F)F)n2c(OC(F)F)nnc12`
False

---

Would you mind telling me the reported herbicidal damage, DIGSA of each entry?
- System: Monocotyledonous and dicotyledonous test plants
- PROCEDURE_SUMMARY: Herbicidal action after emergence of the plants (post-emergence herbicidal action), Example B2
- Assay type: in vivo
- CONDITION_LABEL: postemergent application, 125 g/ha, DIGSA, 2- to 3-leaf stage, evaluated after 2-3 weeks; 100%=total damage
Record the value in %, omitting the unit from your answer.

# query: herbicidal damage, DIGSA of entry Cc1nnc2c(C(=O)C3C(=O)C4CCC(C4)C3=O)ccc(C(F)(F)F)n12 (stereo not shown) [Compound 1.4]
80

Subsequent entry: COCc1nnc2c(C(=O)C3=C(O)C(C)(C)C(=O)C(C)(C)C3=O)ccc(C(F)(F)F)n12 [Compound 5.5]
10

Subsequent entry: Cc1nc2c(C(=O)C3=C(O)C4CCC(C4)C3=O)ccc(C(F)(F)F)n2n1 (stereo not shown) [2.4]
70

Subsequent entry: O=C(C1=C(O)C2CCC(C2)C1=O)c1ccc(C(F)(F)F)n2nc(Cl)nc12 (stereo not shown) [2.2]
90

---

- Tested on: Monocotyledonous and dicotyledonous test plants
- PROCEDURE_SUMMARY: Herbicidal action after emergence of the plants (post-emergence herbicidal action), Example B2
- Format: in vivo
- CONDITION_LABEL: postemergent application, 125 g/ha, DIGSA, 2- to 3-leaf stage, evaluated after 2-3 weeks; 100%=total damage
MEASURE: herbicidal damage, DIGSA (%)
Record the value in %, omitting the unit from your answer.

Form: Entry = O=C(C1=C(O)C2CCC(C2)C1=O)c1ccc(C(F)(F)F)n2c(C3CC3)nnc12 (stereo not shown) | System = Monocotyledonous and dicotyledonous test plants | herbicidal damage, DIGSA = ____
80

Subsequent entry: O=C(C1=C(O)C2CCC(C2)C1=O)c1ccc(C(F)(F)F)n2c(Cl)nnc12 (stereo not shown)
90

Subsequent entry: CCOc1nnc2c(C(=O)C3=C(O)C4CCC(C4)C3=O)ccc(C(F)(F)F)n12 (stereo not shown)
70

Subsequent entry: `Cc1nnc2c(C(=O)C3=C(O)C(C)(C)C(=O)C(C)(C)C3=O)ccc(C(F)(F)F)n12`
50

Cited source: patent US20100035756A1
